ASSAY PROTOCOL: yeast display, Sf9 membrane polyspecificity reagent, FACS + sequencing; frameworks hold sequencing errors
QUANTITY MEASURED: polyreactivity (PSR sort gate)

[[record]]
sequence_text = "QVQLVESGGGLVQAGGSLRISCAASGRIFNINAMGWYRPAPGKERELVAAITWRSGSTYYADSVKGRFTISRDNAKNTVYLHMNSLKPEDTAVYYCAADFSQTRRPIRFYYWGQGSQVTVSS"
quantity_measured = "polyreactivity (PSR sort gate)"
test_result = "high polyreactivity"

[[record]]
sequence_text = "QVQLVESGGGLVQAGGSLRLSCAASGFTFRRYVMGWYRQAPGKERELVAAISQRGGSTYYADSVKGRFTISRDNAKNTVYLQMNSLKPEDTAVYYCNIDYAGELDYWGQGTQVTVSS"
quantity_measured = "polyreactivity (PSR sort gate)"
test_result = "high polyreactivity"

